test: Kinetic constant was determined; assay type: ADME
parameter: Log Ko

input: I am curious: what Log Ko value has been reported for CCCCCCC[S+]([O-])C[C@H](CO)NC(=O)/C=C/c1c(C)nc(O)nc1O (some centres undefined) ?
output: 1.771

input: Now consider CCCCCC[S+]([O-])C[C@H](CO)NC(=O)/C=C/c1c(C)nc(O)nc1O (some centres undefined) .
output: 1.111

input: Now consider CCCCCCCCSC[S+]([O-])C[C@H](CO)NC(=O)/C=C/c1c(C)nc(O)nc1O (some centres undefined) .
output: 3.333

input: Now consider CCCCCCCCSC[S+]([O-])C[C@H](C)NC(=O)/C=C/c1c(C)nc(O)nc1O (some centres undefined) .
output: 3.533

====

tested on: Escherichia coli; experiment: In vitro inhibition of cell growth in Escherichia coli MRE600; type: functional; conditions: read-out: ED50 (the source's name)
Answer each item with its documented EC50.

input: I am curious: what EC50 value has been reported for CC(=O)NCCSC[S+]([O-])C[C@H](CO)NC(=O)/C=C/c1c(C)nc(O)nc1O (stereo not given in full) ?
output: 100 µM

input: Now consider CCCCSC[S+]([O-])C[C@H](C)NC(=O)/C=C/c1c(C)nc(O)nc1O (stereo not given in full) .
output: 2.5 µM

input: Now consider CSC[S+]([O-])C[C@H](C)NC(=O)/C=C/c1c(C)nc(O)nc1O (stereo not given in full) .
output: 5.6 µM

input: Now consider CCC[S+]([O-])C[C@H](C)NC(=O)/C=C/c1c(C)nc(O)nc1O (stereo not given in full) .
output: 9.5 µM

input: Now consider CSC[S+]([O-])C[C@H](CO)NC(=O)/C=C/c1c(C)[nH]c(=O)[nH]c1=O (stereo not given in full) .
output: 11 µM

input: Now consider CCCSC[S+]([O-])C[C@H](CO)NC(=O)/C=C/c1c(C)nc(O)nc1O (stereo not given in full) .
output: 5 µM

input: Now consider Cc1nc(O)nc(O)c1/C=C/C(=O)N[C@@H](CO)C[S+]([O-])CSC1CCCCC1 (stereo not given in full) .
output: 7.5 µM

input: Now consider CCCCCSC[S+]([O-])C[C@H](CO)NC(=O)/C=C/c1c(C)nc(O)nc1O (stereo not given in full) .
output: 1 µM

input: Now consider CCC[S+]([O-])C[C@H](CO)NC(=O)/C=C/c1c(C)nc(O)nc1O (stereo not given in full) .
output: 36 µM

input: Now consider CCCCSC[S+]([O-])C[C@H](CO)NC(=O)/C=C/c1c(C)nc(O)nc1O (stereo not given in full) .
output: 3 µM

====

assay: lipophilicity parameter (Rm) was determined; details: RP-8 HPTLC, 60% methanol/water
parameter: Rm

input: I am curious: what Rm value has been reported for CCCCSC[S+]([O-])C[C@H](C)NC(=O)/C=C/c1c(C)nc(O)nc1O (stereo partly drawn) ?
output: 0.218

input: Now consider CCCCCC[S+]([O-])C[C@H](CO)NC(=O)/C=C/c1c(C)nc(O)nc1O (stereo partly drawn) .
output: 0.235

input: Now consider CCCCCSC[S+]([O-])C[C@H](CO)NC(=O)/C=C/c1c(C)nc(O)nc1O (stereo partly drawn) .
output: 0.16

input: Now consider CCCCCCCCSC[S+]([O-])C[C@H](CO)NC(=O)/C=C/c1c(C)nc(O)nc1O (stereo partly drawn) .
output: 0.895

input: Now consider CCCCCCC[S+]([O-])C[C@H](CO)NC(=O)/C=C/c1c(C)nc(O)nc1O (stereo partly drawn) .
output: 0.56

input: Now consider CCCCCCCCSC[S+]([O-])C[C@H](C)NC(=O)/C=C/c1c(C)nc(O)nc1O (stereo partly drawn) .
output: 1.151

input: Now consider CSC[S+]([O-])C[C@H](C)NC(=O)/C=C/c1c(C)nc(O)nc1O (stereo partly drawn) .
output: -0.404

input: Now consider CCCCSC[S+]([O-])C[C@H](CO)NC(=O)/C=C/c1c(C)nc(O)nc1O (stereo partly drawn) .
output: -0.028

====

test: Partition coefficient (logP); settings: octanol/water
parameter: logP
Enter a number only.

input: I am curious: what logP value has been reported for CSC[S+]([O-])C[C@H](CO)NC(=O)/C=C/c1c(C)[nH]c(=O)[nH]c1=O (stereo not given in full) ?
output: -1.71

input: Now consider CCCCCSC[S+]([O-])C[C@H](CO)NC(=O)/C=C/c1c(C)nc(O)nc1O (stereo not given in full) .
output: 0.6

input: Now consider CCCSC[S+]([O-])C[C@H](CO)NC(=O)/C=C/c1c(C)nc(O)nc1O (stereo not given in full) .
output: -0.665

input: Now consider CCCCCCC[S+]([O-])C[C@H](CO)NC(=O)/C=C/c1c(C)nc(O)nc1O (stereo not given in full) .
output: 1.02

input: Now consider CCCCCC[S+]([O-])C[C@H](CO)NC(=O)/C=C/c1c(C)nc(O)nc1O (stereo not given in full) .
output: 0.41

input: Now consider CSC[S+]([O-])C[C@H](C)NC(=O)/C=C/c1c(C)nc(O)nc1O (stereo not given in full) .
output: -0.699

input: Now consider CCCCSC[S+]([O-])C[C@H](C)NC(=O)/C=C/c1c(C)nc(O)nc1O (stereo not given in full) .
output: 0.819

input: Now consider CCCCSC[S+]([O-])C[C@H](CO)NC(=O)/C=C/c1c(C)nc(O)nc1O (stereo not given in full) .
output: 0.143

====

tested on: L1210; assay: In vitro inhibition of cell growth in L1210 murine leukemia cells; type: functional; conditions: Mus musculus, read-out: ID50 (the source's name)
pIC50: −log10 of the molar value.
Note to self: values exactly at 7 are Condition met. So pIC50 at or above 7 is Condition met, below is Condition not met.

input: Is it the case that CCCCCCCCSC[S+]([O-])C[C@H](C)NC(=O)/C=C/c1c(C)nc(O)nc1O (some centres not stated) has pIC50 reaching or exceeding 7?
output: Condition met

input: Now consider CCC[S+]([O-])C[C@H](CO)NC(=O)/C=C/c1c(C)nc(O)nc1O (some centres not stated) .
output: Condition not met

====

experiment: In Vivo evaluation for the acute toxicity in mice; settings: mouse
parameter: LD50 (mg/kg)
Return type: number; implicit unit mg/kg.

input: I am curious: what LD50 value has been reported for CCCCCCCCSC[S+]([O-])C[C@H](CO)NC(=O)/C=C/c1c(C)nc(O)nc1O (stereo partly drawn) ?
output: 29.5

input: Now consider CCCCSC[S+]([O-])C[C@H](CO)NC(=O)/C=C/c1c(C)nc(O)nc1O (stereo partly drawn) .
output: 2.33

input: Now consider CCCCCC[S+]([O-])C[C@H](CO)NC(=O)/C=C/c1c(C)nc(O)nc1O (stereo partly drawn) .
output: 1.6

input: Now consider CCCCCSC[S+]([O-])C[C@H](CO)NC(=O)/C=C/c1c(C)nc(O)nc1O (stereo partly drawn) .
output: 4.7

input: Now consider CSC[S+]([O-])C[C@H](CO)NC(=O)/C=C/c1c(C)[nH]c(=O)[nH]c1=O (stereo partly drawn) .
output: 0.26

input: Now consider CCCCSC[S+]([O-])C[C@H](C)NC(=O)/C=C/c1c(C)nc(O)nc1O (stereo partly drawn) .
output: 16.5

input: Now consider CSC[S+]([O-])C[C@H](C)NC(=O)/C=C/c1c(C)nc(O)nc1O (stereo partly drawn) .
output: 2.33

input: Now consider CCCCCCC[S+]([O-])C[C@H](CO)NC(=O)/C=C/c1c(C)nc(O)nc1O (stereo partly drawn) .
output: 6.1

====

system: L1210; assay: In vitro inhibition of cell growth in L1210 murine leukemia cells; assay type: functional; conditions: Mus musculus, read-out: ID50 (the source's name)
parameter: IC50 (nM)
Return type: number; implicit unit nM.

input: I am curious: what IC50 value has been reported for CCCCCCC[S+]([O-])C[C@H](CO)NC(=O)/C=C/c1c(C)nc(O)nc1O (stereo not given in full) ?
output: 150

input: Now consider CSC[S+]([O-])C[C@H](CO)NC(=O)/C=C/c1c(C)[nH]c(=O)[nH]c1=O (stereo not given in full) .
output: 480

input: Now consider Cc1nc(O)nc(O)c1/C=C/C(=O)N[C@@H](CO)C[S+]([O-])CSC1CCCCC1 (stereo not given in full) .
output: 600

input: Now consider CCCCCC[S+]([O-])C[C@H](CO)NC(=O)/C=C/c1c(C)nc(O)nc1O (stereo not given in full) .
output: 140

input: Now consider CCCCSC[S+]([O-])C[C@H](C)NC(=O)/C=C/c1c(C)nc(O)nc1O (stereo not given in full) .
output: 50
